Could you please report measured thermal shift delta Tm for the items listed next?
# Test system: LOC_OS02G17970-cb001
# testSummary: thermal shift delta Tm vs DMSO control; higher = stronger stabilization (binding);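 note: purified Escherichia coli-expressed rice kinase domain construct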
# experimentalContext: 12.5 µM; protein concentration 2 µM
Where a name gives a salt, the structure may show the parent alone.
Please reply with the bare figure in °C and do not write the unit itself.

Given item CCn1c(N)c(C(=O)NC)c(=O)c2ccc(C#CC(C)(O)COC)nc21 (stereo not drawn) , the value recorded as its thermal shift delta Tm is 0.48

Given item CC#CC(=O)N1CC[C@@H](n2c(=O)n(-c3ccc(Oc4ccccc4)cc3)c3c(N)ncnc32)C1 [ONO-4059 (GS-4059) hydrochloride] , the value recorded as its thermal shift delta Tm is 0.51

Given item CCc1ccc(/C=C2/SC(=S)NC2=O)cc1 , the value recorded as its thermal shift delta Tm is 1.54

Given item CNC(=O)c1ccc(Nc2ncc(C(F)(F)F)c(NCc3nccnc3N(C)S(C)(=O)=O)n2)cc1 , the value recorded as its thermal shift delta Tm is 0.65

Given item CC(C)NC(=O)C1CCC(n2c(NC(=O)c3ccc(F)cc3)nc3ccc(CN4CCC(C(C)(C)O)CC4)cc32)CC1 (stereo not drawn) , the value recorded as its thermal shift delta Tm is -0.03

Given item COc1ccc(CCNCc2ccc(OCc3ccc(Cl)nc3)c(OC)c2)cc1OC , the value recorded as its thermal shift delta Tm is 0.22

Given item CS(=O)(=O)CCNCc1ccc(-c2ccc3ncnc(Nc4ccc(OCc5cccc(F)c5)c(Cl)c4)c3c2)o1 , the value recorded as its thermal shift delta Tm is 0.69

Given item CC1=C(C(=O)Nc2ccc3[nH]ncc3c2)C(c2ccc(F)cc2)NC(=O)N1 (stereo not drawn) , the value recorded as its thermal shift delta Tm is 0.88

====

# Test system: LOC_OS01G21960-cb002
# testSummary: thermal shift delta Tm vs DMSO control; higher = stronger stabilization (binding)
# experimentalContext: 12.5 µM; protein concentration 2 µM
Could you please report measured thermal shift delta Tm for the items listed next?
Give your result as the value with the unit written after it.

Given item Cc1nc(-c2cn3c(n2)-c2ccc(-c4cnn(C(C)(C)C(N)=O)c4)cc2OCC3)n(C(C)C)n1 , the value recorded as its thermal shift delta Tm is 0.03 °C

Given item Cc1[nH]nc2ccc(-c3cncc(OC[C@@H](N)Cc4ccccc4)c3)cc12 , the value recorded as its thermal shift delta Tm is 3.58 °C

Given item O=C(NOCC1CC1)c1ccc(F)c(F)c1Nc1ccc(I)cc1Cl , the value recorded as its thermal shift delta Tm is 1.16 °C

Given item COc1ccc(C(=O)Nc2sc3c(c2C(N)=O)CCCC3)cc1OC , the value recorded as its thermal shift delta Tm is 0.49 °C

Given item O=S(=O)(NCCNC/C=C/c1ccc(Br)cc1)c1cccc2cnccc12 , the value recorded as its thermal shift delta Tm is 1.16 °C

Given item CS(=O)(=O)N1CCN(Cc2cc3nc(-c4cccc5[nH]ncc45)nc(N4CCOCC4)c3s2)CC1 , the value recorded as its thermal shift delta Tm is 0.24 °C

Given item CN(c1ccccc1CNc1nc(Nc2ccc3c(c2)CC(=O)N3)ncc1C(F)(F)F)S(C)(=O)=O , the value recorded as its thermal shift delta Tm is 2.72 °C

Given item COc1cc(C(=O)N2CCC(N3CCN(C)CC3)CC2)ccc1Nc1ncc2c(n1)N(C)c1ccccc1C(=O)N2C , the value recorded as its thermal shift delta Tm is -0.12 °C

Given item C=CC(=O)Nc1ccc2ncnc(Nc3ccc(OCc4cccc(F)c4)c(Cl)c3)c2c1 , the value recorded as its thermal shift delta Tm is 3.8 °C

Given item Clc1ccc(Nc2nnc(Cc3ccncc3)c3ccccc23)cc1 [Vatalanib (PTK787) 2HCl] , the value recorded as its thermal shift delta Tm is 0.21 °C

Given item N#CC[C@H](C1CCCC1)n1cc(-c2ncnc3[nH]ccc23)cn1 , the value recorded as its thermal shift delta Tm is 1.47 °C

Given item CO[C@@H](C)Cn1c(=O)n(C)c2cnc3ccc(-c4cncc(C(C)(C)O)c4)cc3c21 , the value recorded as its thermal shift delta Tm is 0.72 °C

Given item COc1cc2ncnc(Nc3cccc(Cl)c3F)c2cc1OC(=O)N1CCN(C)C[C@H]1C , the value recorded as its thermal shift delta Tm is 0.37 °C

Given item Cn1ncc(Cl)c1-c1cc(C(=O)N[C@H](CN)Cc2ccc(F)c(F)c2)oc1Cl , the value recorded as its thermal shift delta Tm is 1.66 °C

Given item CN1CCN(Cc2ccc(-c3cnc4[nH]cc(-c5ccc6[nH]ccc6c5)c4c3)cc2)CC1 , the value recorded as its thermal shift delta Tm is 4.44 °C

Given item CC(C)S(=O)(=O)c1ccc2nccc(Nc3ccc4scnc4c3)c2c1 , the value recorded as its thermal shift delta Tm is 0.58 °C

Given item CN(C)S(=O)(=O)c1ccc2c(c1)/C(=C/c1cc3c([nH]1)CCCC3)C(=O)N2 , the value recorded as its thermal shift delta Tm is 3.86 °C

Given item O=S(=O)(c1cccc2c(I)cccc12)N1CCCNCC1 , the value recorded as its thermal shift delta Tm is 0.53 °C

Given item CC1(C)CNc2cc(NC(=O)c3cccnc3NCc3ccncc3)ccc21 [Motesanib Diphosphate (AMG-706)] , the value recorded as its thermal shift delta Tm is 0.76 °C
